ASSAY INFO: Validation screen for small molecules that induce DNA re-replication in SW480 colon adenocarcinoma cells (AID 504364); note: 0% is about no effect
EXPERIMENTAL PARAMETERS: DNA re-replication phenotype (high-content imaging); series mostly up to 46.1 µM
Inconclusive results are not listed. The source made the active and inactive calls. Calls come from the whole dose curve; as a rule, active = well fitted activation curve with a large enough effect; inconclusive = small, poorly fitted or top-dose-only effect; inactive = flat fitted curve, though single readings scatter.
Please answer using one outcome listed in 1.0 (active), 0.0 (inactive)

> print(dat)
                                   molecule  classification
1  NC(=O)c1ccc(OCC(O)CN2CC=C(c3ccc(F)cc3)CC2)cc1 (stereo not given)             0.0
2  CCOC(=O)c1ncn2c1[C@@H]1CCCN1C(=O)c1cc(OC)ccc1-2             0.0
3  CC(C)(C)c1o[nH]c(=O)c1CC(N)C(=O)O (stereo not given)             0.0

Shifting focus to the molecule that follows.
Tell me the recorded outcome of this test for Cc1o[nH]c(=O)c1CC(N)C(=O)O (stereo not given) .
0.0

====

ASSAY INFO: qHTS for differential inhibitors of proliferation of Plasmodium falciparum line W2 (AID 1883);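 note: parasites grown with compound for 72 h before lysis and staining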
EXPERIMENTAL PARAMETERS: Plasmodium falciparum W2 proliferation inhibition; series mostly up to 28.7 µM
Inconclusive results are not listed. Calls of active or inactive are those of the source. The call rests on the fitted dose curve; in most records, active means well fitted curve in the direction sought with a large enough effect; inconclusive means small, poorly fitted or top-dose-only effect, or another doubt; inactive means no such curve, though single readings can be large or run the other way.
Please answer using one outcome listed in active, inactive

> print(dat)
                                   molecule  classification
1  CC(N)Cc1c[nH]c2ccc(O)cc12 (stereo not given)        inactive
2  CC(C)CC(NP(=O)(O)O[C@@H]1O[C@@H](C)[C@H](O)[C@@H](O)[C@H]1O)C(=O)NC(Cc1c[nH]c2ccccc12)C(=O)O (stereo not given in full)        inactive
3            CN1CCC(c2c[nH]c3ccc(O)cc23)CC1          active
4                     CNC(=O)OCC[N+](C)(C)C        inactive

Shifting focus to the molecule that follows.
Tell me the recorded outcome of this test for COc1ccc2c(c1)/C(=C/c1cnc[nH]1)C(=O)N2 .
active

====

ASSAY INFO: qHTS assay to identify small molecule inhibitors of chordoma cells - UCH-2 (AID 1259356)
EXPERIMENTAL PARAMETERS: UCH-2 chordoma viability, CellTiter-Glo ATP luminescence, 48 h; series mostly up to 46.1 µM
Records with an inconclusive call do not appear. Active and inactive are the calls of the source. Calls come from the whole dose curve; as a rule, active = well fitted cell-killing curve with a large enough effect; inconclusive = small, poorly fitted or top-dose-only effect; inactive = flat fitted curve, though single readings scatter.
Please answer using one outcome listed in active, inactive

MOLECULE	CLASSIFICATION
C=C[C@H]1CN2CC[C@H]1C[C@H]2[C@H](OC(=O)OCC)c1ccnc2ccc(OC)cc12	inactive
CC(N)Cc1ccc(O)cc1 (centres undefined)	inactive
O=[N+]([O-])c1cc(I)c(O)c(I)c1	inactive
COc1ccc2c3c1O[C@H]1C(=O)CC[C@H]4[C@@H](C2)N(C)CC[C@]314	inactive
C[C@H]1CC[C@@H]2[C@@H](C)[C@H]3[C@H](C[C@H]4[C@@H]5CC=C6CC(O[C@@H]7O[C@H](CO)[C@H](O)[C@H](O[C@@H]8O[C@H](CO)[C@@H](O)[C@H](O)[C@H]8O)[C@H]7O[C@H]7O[C@@H](C)[C@H](O)[C@@H](O)[C@H]7O)CC[C@]6(C)[C@H]5CC[C@]34C)N2C1 (some centres undefined)	inactive
Cc1ccccc1-n1c(CF)nc2ccc(N)cc2c1=O	inactive

Tell me the recorded outcome of this test for CCC/C=C/C=C/C(=O)O[C@H]1/C(=C/C(=O)OC)C[C@H]2C[C@H]([C@@H](C)O)OC(=O)C[C@H](O)C[C@@H]3C[C@H](OC(C)=O)C(C)(C)[C@](O)(C[C@@H]4C/C(=C/C(=O)OC)C[C@H](/C=C/C(C)(C)[C@]1(O)O2)O4)O3 .
inactive

Tell me the recorded outcome of this test for CC(C)CCC(=O)O[C@H]1CC[C@H]2[C@@H]3CCC4=CC(=O)CC[C@]4(C)[C@H]3CC[C@]12C .
inactive

Tell me the recorded outcome of this test for CN(C)[C@H](Cc1ccccc1)c1ccccc1 .
inactive

Tell me the recorded outcome of this test for CC(=O)O[C@H]1CC[C@@]2(C)C(=CC[C@@H]3[C@@H]2CC[C@]2(C)C(=O)CC[C@@H]32)C1 .
inactive
